Assay: Acute toxicity test
Type: in vivo, mouse
Settings: mouse, in vivo, ip; intraperitoneal; CDF male mice; 10 days observation; Litchfield Wilcoxon method; printed interval 233 to 310 mg/kg
assay_readout: LD50 at 240 h (mg/kg)
Numbers only, in mg/kg.

Ask: Determine from records and report LD50 at 240 h for COc1cc2c(c(OC)c1OC)-c1ccc(OC)c(=O)cc1C(NC[C@@H]1COC(C)(C)O1)CC2 (stereo partly shown) [Example 3]
Result: 269
